So I've got a bunch of sequences here, and I need their self-splicing fitness (ln) values.
- method: self-splicing fitness, log relative to wild type (ln ratio); higher = more splicing; Tetrahymena group I intron in knt gene, E. coli kanamycin selection, DiMSum; sequences stand for … in CUCUCU…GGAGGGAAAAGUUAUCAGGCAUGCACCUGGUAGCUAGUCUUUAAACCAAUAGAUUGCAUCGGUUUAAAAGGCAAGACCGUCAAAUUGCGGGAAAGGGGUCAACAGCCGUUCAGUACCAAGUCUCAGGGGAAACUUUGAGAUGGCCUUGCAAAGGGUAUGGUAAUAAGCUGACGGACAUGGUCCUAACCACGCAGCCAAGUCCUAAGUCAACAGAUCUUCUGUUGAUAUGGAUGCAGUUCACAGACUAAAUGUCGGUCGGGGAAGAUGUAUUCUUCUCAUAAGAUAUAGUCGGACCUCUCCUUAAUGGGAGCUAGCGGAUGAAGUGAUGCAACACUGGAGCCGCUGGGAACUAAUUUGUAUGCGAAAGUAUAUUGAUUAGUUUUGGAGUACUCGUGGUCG;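 further: selection with 25 µg/mL kanamycin versus none on LB agar overnight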
- assay-setup: 30 °C
One number for each entry.

Examples with answers:
{"seq-text": "AUUGAGCAAUAUUACGUGGC", "observed-measurement": -3.45}
{"seq-text": "ACUGAGCAAUAUUACGUCGC", "observed-measurement": -3.35}
{"seq-text": "AUUCAGCAAUAUUACGAAGG", "observed-measurement": -1.02}
{"seq-text": "GCUUAGCAAUAUUACGGGGU", "observed-measurement": -2.56}
{"seq-text": "AACAAGCAAUAUUACGCACA", "observed-measurement": 0.157}

Can you give me self-splicing fitness (ln) for all of these, one by one?
1. GUUUAGCAAUAUUACGUGUA
2. GUAAAGCAAUAUUACGUGGU
3. GACCAGCAAUAUUACGAUGG
4. AAUUAGCAAUAUUACGUCGU

Response:
[-2.53, -3.26, -3.69, -0.641]

Go through the list and state self-splicing fitness (ln) for each entry.
1. CAUCAGCAAUAUUACGAGAG
2. CAGAAGCAAUAUUACGACGC
3. CGGAAGCAAUAUUACGCAAU

Response:
1: -1.9; 2: -3; 3: -3

Parameter requested: self-splicing fitness (ln). Apply to each item below.
1. GAGAAGCAAUAUUACGUCUA
2. AUGAAGCAAUAUUACGCAGG

Response:
1: -0.555; 2: -0.47

Hey, quick one: what's self-splicing fitness (ln) for each of these?
1. CUCGAGCAAUAUUACGUAUU
2. UUUUAGCAAUAUUACGCGCU
3. AGCCAGCAAUAUUACGCGAC
4. UUAUAGCAAUAUUACGCAUA

Response:
-3.51
-2.57
-0.935
-2.43

* * *

- method: self-splicing fitness, log relative to wild type (ln ratio); higher = more splicing; Tetrahymena group I intron in knt gene, E. coli kanamycin selection, DiMSum; sequences stand for … in CUCUCU…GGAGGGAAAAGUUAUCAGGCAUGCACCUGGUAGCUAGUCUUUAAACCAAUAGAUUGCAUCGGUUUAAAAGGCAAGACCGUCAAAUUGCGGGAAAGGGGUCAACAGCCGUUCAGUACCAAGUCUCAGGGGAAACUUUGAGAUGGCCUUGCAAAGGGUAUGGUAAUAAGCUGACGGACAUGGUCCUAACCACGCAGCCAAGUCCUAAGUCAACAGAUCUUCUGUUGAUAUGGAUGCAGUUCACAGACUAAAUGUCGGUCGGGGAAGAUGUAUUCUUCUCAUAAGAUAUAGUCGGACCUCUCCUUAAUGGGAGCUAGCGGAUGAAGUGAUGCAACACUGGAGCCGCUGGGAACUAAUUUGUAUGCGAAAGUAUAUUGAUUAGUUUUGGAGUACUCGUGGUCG
- assay-setup: 30 °C
Use True when the recorded self-splicing fitness (ln) is no lower than -2; use False when it is lower.

{"seq-text": "UCUAAGCAAUAUUACGUUGA", "class-assignment": "True"}
{"seq-text": "GACAAGCAAUAUUACGAAGC", "class-assignment": "False"}
{"seq-text": "UAGGAGCAAUAUUACGCCAU", "class-assignment": "False"}
{"seq-text": "UCUCAGCAAUAUUACGGAGG", "class-assignment": "False"}
{"seq-text": "GCUUAGCAAUAUUACGAGCC", "class-assignment": "False"}
{"seq-text": "GUACAGCAAUAUUACGACAA", "class-assignment": "True"}
{"seq-text": "AGACAGCAAUAUUACGAGCG", "class-assignment": "True"}
{"seq-text": "CAAGAGCAAUAUUACGAAAG", "class-assignment": "True"}
{"seq-text": "GCGAAGCAAUAUUACGGCGG", "class-assignment": "False"}
{"seq-text": "GACAAGCAAUAUUACGAAAA", "class-assignment": "False"}

Request: Item `GUGUAGCAAUAUUACGGGAG` with self-splicing fitness (ln) of -2 or above?
Response: False

Request: Decide: is the reported value of self-splicing fitness (ln) for `UGUUAGCAAUAUUACGAGGG` equal to or greater than -2?
Response: False

Request: Check the entry `UAUAAGCAAUAUUACGUUGA` : does self-splicing fitness (ln) equal or exceed -2?
Response: False

Request: Is it the case that `GAGAAGCAAUAUUACGUAUC` has self-splicing fitness (ln) reaching or exceeding -2?
Response: False

Request: Would you say `GGUGAGCAAUAUUACGCCAC` shows self-splicing fitness (ln) at minimum -2?
Response: True

Request: Determine whether measured self-splicing fitness (ln) meets or exceeds -2 for `UUAAAGCAAUAUUACGUUGC`
Response: False

Request: Is self-splicing fitness (ln) for `AAGAAGCAAUAUUACGAGAA` at or above -2?
Response: False

Request: Kindly determine if self-splicing fitness (ln) recorded for `ACUAAGCAAUAUUACGACCA` is above or exactly -2.
Response: True

Request: Entry `GCUCAGCAAUAUUACGUGAG` : is its self-splicing fitness (ln) no less than -2?
Response: False

Request: Is self-splicing fitness (ln) for `GAGAAGCAAUAUUACGACAU` at or above -2?
Response: True

Request: I'd appreciate it if you could say whether `ACCGAGCAAUAUUACGUCUU` has self-splicing fitness (ln) at least equal to -2.
Response: False

Request: Could you please find out whether `AGUAAGCAAUAUUACGUAUG` has self-splicing fitness (ln) that meets -2 or exceeds it?
Response: False

* * *

- method: self-splicing fitness, log relative to wild type (ln ratio); higher = more splicing; Tetrahymena group I intron in knt gene, E. coli kanamycin selection, DiMSum; sequences stand for … in CUCUCU…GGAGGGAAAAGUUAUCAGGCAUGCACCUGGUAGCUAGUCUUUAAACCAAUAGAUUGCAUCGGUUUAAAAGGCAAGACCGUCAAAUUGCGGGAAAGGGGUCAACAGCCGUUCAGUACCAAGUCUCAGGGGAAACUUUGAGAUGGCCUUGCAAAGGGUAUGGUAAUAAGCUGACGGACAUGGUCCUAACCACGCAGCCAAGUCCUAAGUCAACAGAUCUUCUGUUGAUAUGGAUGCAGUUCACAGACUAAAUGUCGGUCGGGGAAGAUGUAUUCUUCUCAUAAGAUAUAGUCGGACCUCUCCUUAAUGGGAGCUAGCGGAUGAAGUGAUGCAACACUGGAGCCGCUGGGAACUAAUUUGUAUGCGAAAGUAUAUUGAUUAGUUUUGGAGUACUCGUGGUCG
- assay-setup: 30 °C
Can you tell me self-splicing fitness (ln) for the items I'm about to list?

{"seq-text": "CGCCAGCAAUAUUACGCGAA", "self-splicing fitness (ln)": -2.14}
{"seq-text": "GCAUAGCAAUAUUACGCUGU", "self-splicing fitness (ln)": -3.06}
{"seq-text": "UUUAAGCAAUAUUACGUGGG", "self-splicing fitness (ln)": -2.92}
{"seq-text": "UAUGAGCAAUAUUACGGUCU", "self-splicing fitness (ln)": -2.78}
{"seq-text": "UAAGAGCAAUAUUACGUAAG", "self-splicing fitness (ln)": -3.02}

Below are some sequences; for each one, tell me its self-splicing fitness (ln).
1. CGUGAGCAAUAUUACGUACU
2. CAGGAGCAAUAUUACGAGGA

Response:
1: -1.7; 2: -3.55

* * *

- method: self-splicing fitness, log relative to wild type (ln ratio); higher = more splicing; Tetrahymena group I intron in knt gene, E. coli kanamycin selection, DiMSum; sequences stand for … in CUCUCU…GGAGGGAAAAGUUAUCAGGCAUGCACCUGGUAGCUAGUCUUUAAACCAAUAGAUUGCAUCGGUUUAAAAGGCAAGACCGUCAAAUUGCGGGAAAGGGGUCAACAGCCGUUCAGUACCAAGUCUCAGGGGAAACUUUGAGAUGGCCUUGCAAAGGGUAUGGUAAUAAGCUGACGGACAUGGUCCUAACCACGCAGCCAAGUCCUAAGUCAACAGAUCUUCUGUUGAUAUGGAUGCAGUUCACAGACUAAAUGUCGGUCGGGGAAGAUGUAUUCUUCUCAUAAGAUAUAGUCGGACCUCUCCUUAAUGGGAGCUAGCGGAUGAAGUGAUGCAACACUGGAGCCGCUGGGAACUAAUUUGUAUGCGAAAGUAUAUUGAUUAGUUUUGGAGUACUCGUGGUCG
- assay-setup: 30 °C
So I've got a bunch of sequences here, and I need their self-splicing fitness (ln) values.
Numbers only.

{"seq-text": "CCGCAGCAAUAUUACGGAUG", "self-splicing fitness (ln)": -1.99}

// each listed sequence needs a value for self-splicing fitness (ln)
1. UGUCAGCAAUAUUACGAGUC
2. CCCCAGCAAUAUUACGCCUA
3. ACCGAGCAAUAUUACGCAAA
4. CCGAAGCAAUAUUACGGCAG
5. UGGCAGCAAUAUUACGUGCG
6. UAGAAGCAAUAUUACGACGC

Response:
1. -3.49
2. -2.61
3. -3.62
4. -2.86
5. -0.238
6. -1.84

Recorded values, source the supplement of paper PMC7877785.
